pIC50: −log10 of the molar value.
For reference, the following pIC50 results for Macrophage colony-stimulating factor 1 receptor (Homo sapiens, UniProt P07333) were taken from various sources.

Worked cases, answers included:
>>> value_measured("CNc1ncccc1CNc1ccc(Cc2c[nH]c3ncncc23)c(F)n1")
"≥ 5.00"
>>> value_measured("O=C(Nc1cccc(C(=O)c2c[nH]c3ncc(-c4cccnc4)cc23)c1)Nc1ccc(Cl)c(C(F)(F)F)c1")
"≥ 5.00"
>>> value_measured("O=C(c1cccc(NS(=O)(=O)c2cccc(OC(F)(F)F)c2)c1)c1c[nH]c2ncc(Cl)cc12")
"≥ 5.00"
>>> value_measured("COc1ccc(NC(=O)Nc2cccc(C(=O)c3c[nH]c4ncc(Cl)cc34)c2)cc1")
"≥ 5.00"
>>> value_measured("CS(=O)(=O)N1CCC[C@@H](Nc2ncc3cc(C#N)c(=O)n(C4CCCC4)c3n2)C1")
6.51
>>> value_measured("Cc1cnc2[nH]cc(C(=O)c3ccc(Nc4ccc(C5CC5)nc4)nc3F)c2c1")
"> 8.00"
>>> value_measured("CCN(CC)CCOc1ccc(Nc2ncc3cc(C#N)c(=O)n(C4CCCC4)c3n2)cc1")
"> 9.00"

// next item, pIC50 requested
Short answer please: pIC50, Macrophage colony-stimulating factor 1 receptor (Homo sapiens, UniProt P07333), entry `O=[N+]([O-])c1cccc(Cc2c[nH]c3ncc(-c4cccnc4)cc23)c1`
≥ 5.00

###

For reference, the following IC50 results for Macrophage colony-stimulating factor 1 receptor (Homo sapiens) were taken from various sources.

I have 6 compounds here; please give me IC50 for each one.
1. COc1cncc(Nc2ccc(C(=O)c3c[nH]c4ncnc(NCC(F)(F)F)c34)c(F)n2)c1
2. COc1cc2nccc(Oc3cnc(NC(=O)c4cn(C(C)C)nc(-c5ccc(F)cc5)c4=O)nc3)c2cc1OC
3. Cc1nc(NC(=O)N2CCC(C)(C)C2=O)ccc1Oc1ccnc(-c2cnn(C(C)C)c2)c1
4. Cn1cc(-c2cc(Oc3cc(F)c(NC(=O)c4cccn(-c5ccc(F)cc5)c4=O)cc3F)ccn2)cn1
5. CCCS(=O)(=O)Nc1ccc(F)c(C(=O)c2c[nH]c3ncc(-c4cnc(OC)nc4OC)cc23)c1F
6. Cc1nc(NC(=O)N2CCCC(C)(C)C2=O)ccc1Oc1ccnc(-c2cnn(C)c2)c1

1. < 1000 nM
2. 34 nM
3. 99.7 nM
4. ≤ 100 nM
5. ≤ 10000 nM
6. 24.2 nM

###

For reference, the following IC50 results for Macrophage colony-stimulating factor 1 receptor (Homo sapiens, UniProt P07333) were taken from various sources.

Worked cases, answers included:
>>> value_measured("C[C@@H](Oc1cc(-c2cnn(C)c2)cnc1N)c1cccc(NC(=O)c2ccc(C(F)(F)F)c(S(C)(=O)=O)c2)c1")
"≤ 0.05 µM"
>>> value_measured("Fc1nc(NCc2ccccc2Cl)ccc1Cc1c[nH]c2ncncc12")
"≤ 10 µM"
>>> value_measured("CCCS(=O)(=O)Nc1ccc(F)c(C(=O)c2c[nH]c3ncc(-c4ccc(F)cc4)cc23)c1F")
"≤ 10 µM"

I have 5 compounds here; please give me IC50 for each one.
1. COc1cc(NC(=O)Nc2cccc(C(=O)c3c[nH]c4ncc(Cl)cc34)c2)cc(C(F)(F)F)c1
2. Cc1cc(CNc2ccc(Cc3c[nH]c4ncncc34)c(F)n2)ccn1
3. O=C(c1c(Cl)cccc1Cl)c1c[nH]c2ncc(-c3cccnc3)cc12
4. CC(C)(C)OC(=O)C1CN(Cc2ccc(-c3cnc(N)c(NCc4c(Cl)cccc4Cl)n3)cc2)CCN1 (centres unmarked)
5. COc1ccc(F)c(C(=O)c2c[nH]c3nccc(Cl)c23)c1

1. ≤ 10 µM
2. ≤ 10 µM
3. ≤ 10 µM
4. 0.3 to 1 µM
5. ≤ 10 µM
